- protocol-text: Rat PK (i.v./p.o.)
- Assay type: in vivo
- conditions-used: Sprague Dawley, plasma, oral, 6: co-solvent (pH 9), 39, 40, 42: co-solvent + surfactant (pH 9), read-out: % F (p.o.)
- Protocol: Sprague Dawley Rats (n=3) were dosed both intravenously and orally with a solution formulation followed by plasma collection at time points providing sufficient coverage of the absorption, distribution, metabolism and excretion phases of the test article. Test article concentrations at each time point were determined by LC-MS detected bioanalytical analysis. […]
measured-endpoint: bioavailability (%)
Answer in %, number only, no unit symbol.

Query string: Using the record for Cc1nc2ncnn2c(O)c1Cc1ccc(C(C)(C)C)cc1 [Compound 6] , report its bioavailability.
Result string: 12

----------
- protocol-text: pH-solubility (high-throughput, buffers)
- Assay type: physicochemical
- conditions-used: 1000 ug compound in 1 mL pH 7 buffer
Binary classification by Sol. pH 7, with 100 ug/mL as an inclusive lower bound for Condition met; all other cases are Condition not met.

Query string: Is reported Sol. pH 7 greater than or equal to 100 ug/mL here: Cc1nc2nc(C(F)(F)F)nn2c(O)c1Cc1ccc(C(C)(C)C)cc1 [Compound 2]
Result string: Condition met

Query string: Try the molecule Cc1nc2ncnn2c(O)c1Cc1ccc(C(C)(C)C)cc1 [Compound 11]
Result string: Condition met

Query string: Please answer likewise for COCc1nc2ncnn2c(O)c1Cc1ccc(C(C)(C)C)cc1 [Compound 26]
Result string: Condition met

Query string: One more molecule: CCOc1nc2nc(CC)c(Cc3ccc(C(C)(C)C)cc3)c(O)n2n1 [Compound 19]
Result string: Condition met

Query string: Thanks! And COCc1nc2nc(O)c(Cc3ccc(C(C)(C)C)cc3)c(COC)n2n1 [Compound 38] ?
Result string: Condition met

Query string: Queued: CCc1nc2nc(C(=O)N(C)C)nn2c(O)c1Cc1ccc(C(C)(C)C)cc1 [Compound 18]
Result string: Condition not met

Query string: Queued: CC(C)c1nc2ncnn2c(O)c1Cc1ccc(C(C)(C)C)cc1 [Compound 23]
Result string: Condition not met

Query string: Similarly, CCc1nc2nc(N)nn2c(O)c1Cc1ccc(C(C)(C)C)cc1 [Compound 14] ?
Result string: Condition not met

----------
- protocol-text: pH-solubility (high-throughput, buffers)
- Assay type: physicochemical
- conditions-used: pH 9 buffer, aqueous with cosolvent or surfactant or cyclodextrin, kinetic from dmso stock; pH 9 (Table 6); read-out: Solubility pH 9
measured-endpoint: solubility at 24 h (µg/mL)
Respond with the bare value in µg/mL.

Query string: May I ask what solubility at 24 h has been recorded for Cc1nc2ncnn2c(O)c1Cc1ccc(C(C)(C)C)cc1 ?
Result string: 1000

----------
- protocol-text: pH-solubility (high-throughput, buffers)
- Assay type: physicochemical
- conditions-used: 1000 ug compound in 1 mL pH 9 buffer
I'd appreciate it if you could supply Sol. pH 9 values for the items below.
# value in ug/mL; strip the unit string

Query string: Which Sol. pH 9 is listed for CCc1nc2n[nH]c(=O)n2c(O)c1Cc1ccc(C(C)(C)C)cc1 ?
Result string: 914

Query string: Please do the same for CC(C)(C)c1ccc(Cc2c(C3CCC3)nc3ncnn3c2O)cc1 as well.
Result string: 910

----------
- protocol-text: Rat plasma protein binding (equilibrium dialysis)
- Type: in vitro ADME
- conditions-used: read-out: Rat Plasma Protein Binding (PPB) Fu
measured-endpoint: fraction unbound at 6 h
Answer with a number only.

Query string: Requested read-out: fraction unbound at 6 h. Entry: CC(C)(C)c1ccc(Cc2c(C3CCC3)nc3ncnn3c2O)cc1
Result string: 0.01

Query string: Then COCc1nc2ncnn2c(O)c1Cc1ccc(C(C)(C)C)cc1 ?
Result string: 0.01

Query string: // repeat for CCc1nc2ncnn2c(O)c1Cc1ccc(C(C)(C)C#N)cc1 and report
Result string: 0.011

Query string: Repeat with Cc1nc2ncnn2c(O)c1Cc1ccc(C(C)(C)C)cc1
Result string: 0.01

The values you see were collected from patent US20170216295A1.
